Origin of measurements: PubChem BioAssay (NCI)

- Measurement protocol: NCI Yeast Anticancer Drug Screen. Data for the mlh1 strain (AID 171);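 further: 0% = growth of vehicle-treated control cultures of the same strain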
- Condition info: S. cerevisiae mlh1 strain growth inhibition; at 3.7 µM
This is part of a sample that, as a whole, favours compounds with a hit. Of some 79,000 tested, about 15% had one in any assay. Calls of active or inactive are those of the source. No stated cut-off is given here; in the data, active means growth inhibition above about 70%; inactive means the rest.
Outcome codes: 1 = active, -1 = inactive

Compound	Cat
C=C(CN(C)C)C(=O)c1cc(C)ccc1C	-1
COC1C=COC2(C)Oc3c(C)c(O)c4c(c3C2=O)/C(=N/C2CCC(O)OC2C)C=C(NC(=O)/C(C)=C\C(=O)C2CC2C(O)C(C)C(O)C(C)C(OC(C)=O)C1C)C4=O (stereo not given)	-1
COc1cc(/C=C2\CCc3ccccc3C2=O)cc(OC)c1OC	-1
O=C1c2ccccc2C(=O)c2cc(CBr)ccc21	-1
OC(c1ccc(F)cc1)(c1ccc(F)cc1)C1CC1	-1
OCC1OC(OCC(O)C(O)C(O)C(/C=N/Nc2ccccc2)=N/Nc2ccccc2)C(O)C(O)C1O (stereo not given)	-1
Nc1nc(Cl)c(Cl)c(Cl)n1	-1
Oc1c(Br)cc(Br)cc1C1CCCCC1	-1
C[C@H](CCC(=O)NN)[C@H]1CC[C@H]2[C@@H]3CC[C@@H]4C[C@H](O)CC[C@]4(C)[C@H]3CC[C@]12C	-1
Cc1nn(-c2cc(Cl)ccc2[N+](=O)[O-])c(C)c1Cl	-1
COC(=O)c1ccc(CCC2=CC(=O)C(Br)=CC2=O)cc1	-1
COc1cc(C2C3=C(COC3=O)Oc3cc4c(cc32)OCO4)ccc1O (stereo not given)	-1
CCN(CC)CCNc1ccc([N+](=O)[O-])c2nc3ccc(OC)cc3c(N)c12	-1
Cc1ccc(S/N=C\c2ccccc2O)cc1	-1
COC(=O)CCNc1c2ccccc2nc2cccc([N+](=O)[O-])c12	1
CCOC(=O)C(NC(=O)c1ccccc1)(N1CCN(c2cc3c(cc2F)c(=O)c(C(=O)O)cn3C2CC2)CC1)C(F)(F)F (stereo not given)	-1
CN(C)CCn1c2c3ccccc3ccc2c2oc(=O)c3ccccc3c21	-1
Nc1ccc2c(c1)C(=O)c1cccc(N)c1C2=O	-1
CN(Cc1cnc2nc(N)nc(N)c2n1)c1ccc(C(=O)N[C@@H](CCC(=O)O)C(=O)O)cc1	-1
S=C(N/N=C(/c1ccccc1)c1ccccn1)N1CCCCCC1	-1
CC(=O)Oc1ccc2c(c1)Cc1cc(N=C3C=CC(=O)O3)ccc1-2	-1
NC(N)=N/N=C\c1c2ccccc2cc2ccccc12	-1
O=C(NC(Nc1ccc(F)c(Cl)c1)(C(F)(F)F)C(F)(F)F)C(C(F)(F)F)C(F)(F)F	-1
CC(CC(C)(C)[N+](C)(C)C)[N+](C)(C)C (stereo not given)	-1
CSC(=S)Nc1cc(C)ccn1	-1
CCCCCCCCCCC1CCC(=O)O1 (stereo not given)	-1
O=C1OC(=O)C2CCCC3CCCC1C32 (stereo not given)	-1
NC1=NS(=O)(=O)N=C(N)C1=Cc1ccc([N+](=O)[O-])o1	-1
S=C(Nc1ccc(Cl)c(Cl)c1)SCc1ccc2c(c1)OCO2	-1
COCCOC(=O)CCn1cc(F)c(=O)[nH]c1=O	-1
CC1OCC2OC(C)OC(C3C4=C(CC(C)(C)CC4=O)OC4=C3C(=O)CC(C)(C)C4)C2O1 (stereo not given)	-1
Cc1ccc2ccc3cccc4ccc1c2c34	-1
O=C1c2ccccc2C(=O)c2c(NC3CCCCC3)ccc(Nc3ccc(S(=O)(=O)O)cc3)c21	-1
COc1ccc(NC(=S)N/N=C(\c2ccccc2)c2ccccn2)cc1	-1
COc1cc(C2c3cc4c(cc3OC(Nc3ccccc3)C2C)OCO4)cc(OC)c1O (stereo not given)	-1
Cc1ccc(S(=O)(=O)NC(=O)NC2=NC(C)(C)N(c3ccc(Cl)c(Cl)c3)C(N)=N2)cc1	-1
O=C1c2cc([N+](=O)[O-])ccc2-c2cccc(F)c21	-1
Cc1cc(S(=O)(=O)/N=C(/NN)NNc2cccc(C(F)(F)F)n2)c(S)cc1Cl	-1
S=C(S)NN1CCOCC1	-1
CCC[CH2][Ge]([CH2]CCC)([CH2]CCC)[O]C(=O)C(OC)c1ccccc1 (stereo not given)	-1
CCCCCCCCCCCC(=O)N(C)C	-1
O=C1CSc2cc([N+](=O)[O-])ccc2N1	-1
Nc1ccccc1CC(O)C(=O)O (stereo not given)	-1
Cn1c(N)nc(-c2ccc(Cl)cc2)c1SSc1c(-c2ccc(Cl)cc2)nc(N)n1C	-1
COc1cc(C2SCC(=O)N2c2nnc(C(F)(F)F)s2)cc(OC)c1OC (stereo not given)	-1
